Where do the numbers come from? From the supplement of paper PMC10065799.

testedOn: c-Src SH2
assayText: SH2 binding enrichment of the phosphorylated peptide, bacterial display (enrichment ratio); higher = better substrate or ligand; peptides without Tyr show the background
Record form. Attribute: SH2 binding enrichment. Fill in for each entry.
Reply briefly: the number, and no unit.

Field request: SH2 binding enrichment | item: LSSNLYYRWLT [CNGA3_Y168_P163L]
0.795

Field request: SH2 binding enrichment | item: KELANYFKLHH [AK7_Y390_YF]
0.516

Field request: SH2 binding enrichment | item: PFFASYPPSPD [GDAP2_Y491_T489A_YF]
0.658

Field request: SH2 binding enrichment | item: PYIDSYEKDVA [PGM1_Y521_L516P]
0.647

Field request: SH2 binding enrichment | item: FFWDGYMPRQF [GSS_Y270_R267W_YF]
0.81

Field request: SH2 binding enrichment | item: GDNNIYVTKII [DLG1_Y349_S347N]
0.546

Field request: SH2 binding enrichment | item: DEEYEYMNRRR [ERBB3_Y1199]
0.619

Field request: SH2 binding enrichment | item: AFSTVYKGLWI [EGFR_Y727_G724S]
0.653

Field request: SH2 binding enrichment | item: GTCGGYCSVLG [RAB18_Y202_A198T]
8.16

Field request: SH2 binding enrichment | item: DQLVKHGVNPG [TMPO_Y127_Y127H]
0.457

Field request: SH2 binding enrichment | item: NSNSDYVDVLP [SH2D1B_Y127]
0.485

Field request: SH2 binding enrichment | item: VDLSKCITTIA [FAS_Y232_Y232C]
0.374

Field request: SH2 binding enrichment | item: LASSEYPVRRR [GALK1_Y236]
0.336

Field request: SH2 binding enrichment | item: QRALLYEDTLY [UNC13D_Y56_A59T]
0.885

Field request: SH2 binding enrichment | item: TLRETYGEMAD [ALB_Y108]
0.91

Field request: SH2 binding enrichment | item: PESIMYWKFTT [NTRK3_Y744_R745W]
0.487

Field request: SH2 binding enrichment | item: VYAANYYKLLG [ROR2_Y645_D644N]
0.506

Field request: SH2 binding enrichment | item: SAASGYSDVTD [DTX2_Y425_T421A]
6.28

Field request: SH2 binding enrichment | item: FSDPDYLAAVD [GLB1_Y154_S149F]
0.417

Field request: SH2 binding enrichment | item: ENEGTYVCIAT [ADAMTSL3_Y1365]
0.395

Field request: SH2 binding enrichment | item: SDQPDYDSVAS [GIT2_Y392_N387S]
0.526

Field request: SH2 binding enrichment | item: IIGNGYYFHVF [MYBPC3_Y1135_R1138H]
0.542

Field request: SH2 binding enrichment | item: "AEVIWYKGDEV"
0.475

* * *

testedOn: Hck (UniProt P08631)
Sequence (P08631 whole entry, looked up): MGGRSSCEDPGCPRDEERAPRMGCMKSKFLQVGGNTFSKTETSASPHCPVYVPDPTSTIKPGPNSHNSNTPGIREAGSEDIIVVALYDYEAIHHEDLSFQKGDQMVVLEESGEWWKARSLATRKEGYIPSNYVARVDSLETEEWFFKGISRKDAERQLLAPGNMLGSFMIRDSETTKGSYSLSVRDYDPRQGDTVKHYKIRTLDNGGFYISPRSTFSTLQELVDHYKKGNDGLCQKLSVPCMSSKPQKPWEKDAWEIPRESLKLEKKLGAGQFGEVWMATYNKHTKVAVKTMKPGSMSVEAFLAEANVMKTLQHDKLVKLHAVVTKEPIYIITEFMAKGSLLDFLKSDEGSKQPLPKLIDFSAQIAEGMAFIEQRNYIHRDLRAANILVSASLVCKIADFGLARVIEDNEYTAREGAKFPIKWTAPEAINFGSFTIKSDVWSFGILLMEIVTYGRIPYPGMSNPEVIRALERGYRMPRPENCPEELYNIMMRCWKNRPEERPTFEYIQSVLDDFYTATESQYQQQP
assayText: phosphorylation enrichment, bacterial display (enrichment ratio); higher = better substrate or ligand; peptides without Tyr show the background
measurementName: phosphorylation enrichment
Reply briefly: the number, and no unit.

Under Hck (UniProt P08631): phosphorylation enrichment value of RPSRWYQFPVA [ANOS1_Y259_R262P] ?
0.5

Under Hck (UniProt P08631): phosphorylation enrichment value of EYYENYIEELK [PARP4_Y218_F215Y] ?
0.554

Under Hck (UniProt P08631): phosphorylation enrichment value of RRAVKYLQMVG [AVPR2_Y117_C112R] ?
0.674

Under Hck (UniProt P08631): phosphorylation enrichment value of HSHTRYERNIE [F2_Y434_R431H] ?
0.477

Under Hck (UniProt P08631): phosphorylation enrichment value of RLSVDCGKKSK [TUBA4A_Y161_Y161C] ?
0.462

Under Hck (UniProt P08631): phosphorylation enrichment value of PSTFRYERGSR [INPPL1_Y663_P659S_YF] ?
0.345

Under Hck (UniProt P08631): phosphorylation enrichment value of FSALDYKIFYY [WDPCP_Y210_L205F] ?
0.473

Under Hck (UniProt P08631): phosphorylation enrichment value of RQGKDYIGAIP [KDR_Y951_V952I] ?
0.696

Under Hck (UniProt P08631): phosphorylation enrichment value of ATDLAYYLVRK [ASL_Y375] ?
0.885

Under Hck (UniProt P08631): phosphorylation enrichment value of TLKDVYDDGKF [RPS6KA3_Y483_YF] ?
0.66

Under Hck (UniProt P08631): phosphorylation enrichment value of SWKRRYFLLRA [APBB1IP_Y331] ?
0.943

Under Hck (UniProt P08631): phosphorylation enrichment value of DGTGHYLGNAC [GATA5_Y208_C210G] ?
0.399

Under Hck (UniProt P08631): phosphorylation enrichment value of PYRQWYESHYA [RPS8_Y113] ?
1.3

Under Hck (UniProt P08631): phosphorylation enrichment value of PSNTEYPGPHS [TP63_Y171_D170E] ?
0.477

Under Hck (UniProt P08631): phosphorylation enrichment value of KVIDMYLMGCF [GABRB2_Y308_A304V] ?
0.608

Under Hck (UniProt P08631): phosphorylation enrichment value of LNLDTYQKRLR [PLA2G2D_Y126_R121L] ?
0.518

Under Hck (UniProt P08631): phosphorylation enrichment value of EREYKYDAHNY [OAT_Y50_G51D] ?
0.498

Under Hck (UniProt P08631): phosphorylation enrichment value of RELGEYPLAEY [ALDH1A3_Y492_A493P] ?
0.505

Under Hck (UniProt P08631): phosphorylation enrichment value of MKKMHYVDPDH [ST3GAL5_Y99] ?
0.367

Under Hck (UniProt P08631): phosphorylation enrichment value of SLEKGYELPDG [ACTC1_Y242_S241G] ?
0.488

Under Hck (UniProt P08631): phosphorylation enrichment value of DDLEVYLKHPL [SACS_Y3477_L3481P] ?
1.73

Under Hck (UniProt P08631): phosphorylation enrichment value of EVLKNYSQQKD [GOLGA4_Y1551_N1552S] ?
0.476

Under Hck (UniProt P08631): phosphorylation enrichment value of SISYDYCRVPM [BST2_Y8_T4I] ?
2.62

Under Hck (UniProt P08631): phosphorylation enrichment value of LTNDRYVATLT [IL6ST_Y396_L397V] ?
0.394

Under Hck (UniProt P08631): phosphorylation enrichment value of AACQHYGVRTC [NR4A2_Y275] ?
0.421

Under Hck (UniProt P08631): phosphorylation enrichment value of SDVNKYSTAFG [GJB3_Y16_G12D] ?
0.386

Under Hck (UniProt P08631): phosphorylation enrichment value of EDKFMYFEFPQ [PTEN_Y240] ?
1.11

Under Hck (UniProt P08631): phosphorylation enrichment value of HLGNQYVNVMN [SLC3A1_Y461_R456H] ?
0.85

Under Hck (UniProt P08631): phosphorylation enrichment value of QFFQSYFNNNF [ZNF236_Y644] ?
0.532

Under Hck (UniProt P08631): phosphorylation enrichment value of LTYHMYADPNI [SOS1_Y618_F623I] ?
4.78

Under Hck (UniProt P08631): phosphorylation enrichment value of SEEVNYATLTF [CLEC12B_Y7_T6N] ?
1.66

Under Hck (UniProt P08631): phosphorylation enrichment value of AIMSFYATLID [RYR1_Y2426_A2428T] ?
0.585

Under Hck (UniProt P08631): phosphorylation enrichment value of CTTIHYMYMCN [TP53_Y234_N235M] ?
0.45

Under Hck (UniProt P08631): phosphorylation enrichment value of KIITDYFVDMK [MPP4_Y566_V562I_YF] ?
0.479

Under Hck (UniProt P08631): phosphorylation enrichment value of PEVRRCVLPLN [RPE65_Y368_Y368C] ?
0.48

Under Hck (UniProt P08631): phosphorylation enrichment value of ISSLRYELLEE [TRPC6_Y896] ?
0.597

Under Hck (UniProt P08631): phosphorylation enrichment value of KPLMPCMRFSR [SMARCE1_Y73_Y73C_YF] ?
0.439

Under Hck (UniProt P08631): phosphorylation enrichment value of SHSMRYFYTAV [HLA-C_Y31_D33Y] ?
0.631

Under Hck (UniProt P08631): phosphorylation enrichment value of AKKVFYVNETR [SHH_Y253_I255N] ?
0.338

Under Hck (UniProt P08631): phosphorylation enrichment value of EEEPVYEAEPE [HCLS1_Y360] ?
0.73

Under Hck (UniProt P08631): phosphorylation enrichment value of KVITDYYVDMK [MPP4_Y566] ?
0.576

Under Hck (UniProt P08631): phosphorylation enrichment value of QSVEPYTKQQL [STAT3_Y640] ?
0.641

Under Hck (UniProt P08631): phosphorylation enrichment value of GMTRNYIIFIE [BCO2_Y294] ?
0.563

Under Hck (UniProt P08631): phosphorylation enrichment value of GLAKGYIDPET [CSNK1G2_Y195_E194G] ?
0.513

Under Hck (UniProt P08631): phosphorylation enrichment value of DPADRYLTEQY [CDKL5_Y286_C291Y] ?
0.497

Under Hck (UniProt P08631): phosphorylation enrichment value of VVLGSYDRLRV [IFT172_Y260] ?
1.11

Under Hck (UniProt P08631): phosphorylation enrichment value of SIKHKYVTALF [KCNH2_Y611_D609H_YF] ?
0.419

Under Hck (UniProt P08631): phosphorylation enrichment value of HTVVSYAKVRA [CLOCK_Y378_E380K] ?
0.85

Under Hck (UniProt P08631): phosphorylation enrichment value of CPPKVYELMRA [ABL2_Y515] ?
1.81
